# key: entry, value: dCas9 with SSAP activity (normalized)
system: gene editing with dCas9; assay: Screen of 322 new SSAP proteins, gene editing activity with dCas9 (Table 5); format: cell-based; conditions: normalized

molecule	dCas9 with SSAP activity (normalized)
SSAP_58: SEQ ID NO: 227; Pirellula sp. SH-Sr6A (protein, listed as Pirellula sp.) SEATKEAKPETAIAKKPNGIKDWLKSDALKTQIASVAPKHMAPERVMRIALNAVSRTPKLADCTPESFMRCLLDLSSWGLEPDGRHAHLIPYGTECTLVLDYKGLVTLAYRSGWVKKIHADVVFEGDIFVYSLGTVCQHIPWEFRDDANKPEHKGHFRAAYCVVTMADGIEKHEVMTASEIDAIKAKSRSGNSGPWKDHYTEMAKKTVYRRASKWLPLSPEQADAMERDDDRIIDAVSVAVTQRLSKAAMPLIGANETGDTE	−0.647
SSAP_79: SEQ ID NO: 248 (protein) EALLLRRWQMGNLTKTTGFALAPQNLEQAMQLATMICNSQLAPNNYKGKPEDTLVAMMMGHELGLNPLQSIQNIAVINGRPSIYGDALLALVQNSPAFGGIQESFDEDTMTATCTVWRKGGEKHTQHYSKDDADTAGLWGKQGPWKQHPKRMLAMRARGFAVRNQFADALAGLVTREEAEDMEKEINPTPAPQAQSKRIGQKQSRTQYSESDFNENFPKWKAAVESGKKTSEQIISMVSTKGDLTQGMIEAIESIEAGEPA	−2.203
